The reported numbers originate from BindingDB's records for patent US9139585.

- EXPERIMENTAL SYSTEM: ATP-sensitive inward rectifier potassium channel 1 (Homo sapiens)
- Sequence (P48048 whole entry): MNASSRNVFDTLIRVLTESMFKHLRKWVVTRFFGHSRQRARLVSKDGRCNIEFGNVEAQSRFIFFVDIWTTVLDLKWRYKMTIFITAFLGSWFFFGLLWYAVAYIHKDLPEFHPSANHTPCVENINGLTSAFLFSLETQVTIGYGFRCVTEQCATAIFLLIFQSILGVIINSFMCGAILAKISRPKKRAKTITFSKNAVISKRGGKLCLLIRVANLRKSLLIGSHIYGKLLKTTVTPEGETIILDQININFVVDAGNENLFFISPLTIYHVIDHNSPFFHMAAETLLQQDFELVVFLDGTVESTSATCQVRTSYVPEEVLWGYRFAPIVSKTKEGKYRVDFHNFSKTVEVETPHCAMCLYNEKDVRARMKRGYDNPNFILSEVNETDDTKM
pIC50: −log10 of the molar value.
QUANTITY MEASURED: pIC50

1) Cc1c([C@@H](O)CN2CCN(C[C@H](O)c3ccc4c(c3)CCS4(=O)=O)CC2)ccc2c1COC2=O [US9139585, 43B]    7.02
